# study-system: EGFR bearing the L858R mution (Homo sapiens, UniProt P00533, L858R)
# Sequence (P00533 25-1210 L858R): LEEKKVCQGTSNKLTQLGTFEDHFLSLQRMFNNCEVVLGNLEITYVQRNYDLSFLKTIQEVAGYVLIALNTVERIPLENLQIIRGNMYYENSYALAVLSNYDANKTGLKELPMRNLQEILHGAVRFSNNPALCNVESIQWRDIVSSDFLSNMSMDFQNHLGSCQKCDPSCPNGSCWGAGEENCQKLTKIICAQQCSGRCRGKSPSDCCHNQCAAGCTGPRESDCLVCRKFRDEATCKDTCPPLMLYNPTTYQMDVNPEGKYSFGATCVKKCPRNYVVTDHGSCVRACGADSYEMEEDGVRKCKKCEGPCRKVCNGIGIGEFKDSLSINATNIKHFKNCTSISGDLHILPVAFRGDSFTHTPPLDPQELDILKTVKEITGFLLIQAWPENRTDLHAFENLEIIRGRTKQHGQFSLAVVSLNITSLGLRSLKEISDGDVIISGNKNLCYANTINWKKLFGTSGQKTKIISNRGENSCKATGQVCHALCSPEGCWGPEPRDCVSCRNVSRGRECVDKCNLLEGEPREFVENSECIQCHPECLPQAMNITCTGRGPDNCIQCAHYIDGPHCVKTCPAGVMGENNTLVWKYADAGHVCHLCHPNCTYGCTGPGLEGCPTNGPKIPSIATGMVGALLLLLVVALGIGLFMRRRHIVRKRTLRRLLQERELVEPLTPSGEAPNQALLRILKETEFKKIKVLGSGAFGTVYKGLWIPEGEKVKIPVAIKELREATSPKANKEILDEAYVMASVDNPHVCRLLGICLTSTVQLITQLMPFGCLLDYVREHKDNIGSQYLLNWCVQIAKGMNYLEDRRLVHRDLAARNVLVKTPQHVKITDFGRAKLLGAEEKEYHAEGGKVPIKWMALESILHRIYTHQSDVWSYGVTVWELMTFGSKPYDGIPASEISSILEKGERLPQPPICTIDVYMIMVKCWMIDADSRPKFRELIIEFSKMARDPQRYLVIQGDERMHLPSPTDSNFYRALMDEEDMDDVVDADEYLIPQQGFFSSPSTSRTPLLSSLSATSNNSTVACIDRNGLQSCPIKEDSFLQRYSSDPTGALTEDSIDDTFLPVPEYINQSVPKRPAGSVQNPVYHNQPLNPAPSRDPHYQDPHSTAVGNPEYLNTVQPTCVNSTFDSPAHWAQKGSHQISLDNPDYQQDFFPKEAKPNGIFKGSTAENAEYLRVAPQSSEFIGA
# test-summary: Kinase inhibition, EGFR L858R
# Format: biochemical
# applied-conditions: 10 μM ATP; 10 pt curves, 3 μM top concentration (singlicates)
endpoint: IC50

Worked set:
# compound, recorded-measurement
data = [
    ("C=CC(=O)Nc1ccc(OC)c(Nc2ncc(C)c(Nc3ccccc3P(C)(C)=O)n2)c1", "< 51 nM"),
    ("C=CC(=O)Nc1cc(Nc2ncc(Cl)c(Nc3cccc(C)c3P(=O)(CC)CC)n2)c(OC)cc1F", "< 51 nM"),
    ("C=CC(=O)Nc1cc(Nc2ncc(Cl)c(Nc3ccccc3P(=O)(CC)CC)n2)c(OC)cc1F", "< 51 nM"),
    ("C=CC(=O)Nc1ccc(OC)c(Nc2ncc(Cl)c(Nc3cccc(F)c3P(C)(C)=O)n2)c1", "< 51 nM"),
    ("C=CC(=O)Nc1ccc(OC)c(Nc2ncc(F)c(Nc3ccccc3P(C)(C)=O)n2)c1", "< 51 nM"),
]

QUERY: I am curious: what IC50 value has been reported for "C=CC(=O)Nc1cc(Nc2ncc(Cl)c(Nc3ccccc3P(C)(C)=O)n2)c(OC)cc1N1CCOCC1" ?
RESULT: < 51 nM

QUERY: Quick check: IC50 of "C=CC(=O)Nc1ccc(Nc2ncc(Cl)c(Nc3ccccc3P(C)(C)=O)n2)c(OC)c1" ?
RESULT: 101 to 250 nM

QUERY: Consider the compound shown here: "C/C=C/C(=O)Nc1ccc(OC)c(Nc2ncc(Cl)c(Nc3ccccc3P(C)(C)=O)n2)c1" What is its recorded IC50?
RESULT: ≥ 250 nM

QUERY: Would you mind telling me what IC50 value was observed for "COc1cc(P(C)(C)=O)ccc1Nc1ncc(Cl)c(Oc2cccc(NC(=O)/C=C/CN(C)C)c2)n1" ?
RESULT: < 51 nM

QUERY: So what does the record say about IC50 for COc1ccc(NC(=O)C2CO2)cc1Nc1ncc(Cl)c(Nc2ccccc2P(C)(C)=O)n1 (stereo not drawn) ?
RESULT: < 51 nM

QUERY: Which measured IC50 value corresponds to C=CC(=O)Nc1cc(Nc2ncc(Cl)c(Nc3ccccc3P(C)(C)=O)n2)c(OC)cc1O[C@H](COC)CN(CC)CC (stereo in doubt) ?
RESULT: < 51 nM

QUERY: I would be grateful if you could share the reported IC50 for C=CC(=O)Nc1cc(Nc2ncc(Cl)c(Nc3ccccc3P(C)(C)=O)n2)c(OC)cc1OC(COC)CN(CC)CC (stereo not drawn) .
RESULT: < 51 nM

QUERY: I'd like to know its IC50. The compound in question is "C=C(C)C(=O)Nc1ccc(OC)c(Nc2ncc(Cl)c(Nc3ccccc3P(C)(C)=O)n2)c1"
RESULT: ≥ 250 nM

QUERY: What measured IC50 goes with "COc1cc(F)c(NC(=O)/C=C/CN(C)C)cc1Nc1ncc(Cl)c(Nc2ccccc2P(C)(C)=O)n1" ?
RESULT: < 51 nM

QUERY: Look at this compound and give its reported IC50. "C=C(CNc1ccc(OC)c(Nc2ncc(Cl)c(Nc3ccccc3P(C)(C)=O)n2)c1)C(=O)OC"
RESULT: < 51 nM

QUERY: Data request, read-out IC50, for "C=CC(=O)Nc1ccc(OCC)c(Nc2ncc(Cl)c(Nc3ccccc3P(C)(C)=O)n2)c1"
RESULT: < 51 nM

QUERY: Look up IC50: "C=CC(=O)Nc1cc(Nc2ncc(Cl)c(Nc3ccccc3P(=O)(CC)CC)n2)c(OC)cc1OCCN(C)C"
RESULT: < 51 nM

QUERY: I have this compound here, C=CC(=O)N[C@@H]1CCC[C@@H](Nc2ncc(Cl)c(Nc3ccccc3P(C)(C)=O)n2)C1 (racemic) , and I need its recorded IC50.
RESULT: ≥ 250 nM

QUERY: Quick one: IC50 of "C=CC(=O)Nc1ccc(OC)c(Nc2ncc(Br)c(Nc3ccccc3P(C)(C)=O)n2)c1" ?
RESULT: < 51 nM

QUERY: Which value of IC50 has been reported for "C=CC(=O)Nc1ccc(OC)c(Nc2ncc(Cl)c(Nc3ccccc3P(C)(C)=O)n2)c1" in the records?
RESULT: < 51 nM

QUERY: Entry under review: "C=CC(=O)Nc1cc(Nc2ncc(Cl)c(Nc3ccccc3P(C)(C)=O)n2)c(OC)cc1N1CCN(C)CC1" . Reported IC50?
RESULT: < 51 nM

QUERY: Recorded IC50 for C=CC(=O)Nc1cc(Nc2ncc(Cl)c(Nc3ccccc3P(C)(C)=O)n2)c(OC)cc1O[C@@H](COC)CN(CC)CC (stereo in doubt) , please?
RESULT: < 51 nM

QUERY: Value lookup for IC50; key = "C=CS(=O)(=O)Nc1ccc(OC)c(Nc2ncc(Cl)c(Nc3ccccc3P(C)(C)=O)n2)c1"
RESULT: < 51 nM

meta.source: patent US9834518B2
